Data credit: the Immune Epitope Database (IEDB)

molecular target: HLA-B*58:01; assay: IEDB peptide-MHC binding, purified MHC/direct/fluorescence; filed as Kd, often an IC50 or EC50 that approximates it; bounds were set here for any values at or beyond the usual limits of such assays; conditions: source organism: Camelpox virus CMS
result_type: Kd (nM)
Could you give me the number in nM? Just the number is fine.

Entry under review: `ISIPRSVGF` . Reported Kd? 30.3

* * *

molecular target: HLA-B*08:01; assay: IEDB peptide-MHC binding, purified MHC/direct/fluorescence; filed as Kd, often an IC50 or EC50 that approximates it; bounds were set here for any values at or beyond the usual limits of such assays; settings: source organism: Escherichia coli O157:H7
result_type: Kd

// map `ITIPIGLYL` to recorded Kd (system: HLA-B*08:01) ≥ 20 µM

* * *

target: HLA-A*03:01; experiment: IEDB peptide-MHC binding, purified MHC/competitive/fluorescence; bounds were set here for any values at or beyond the usual limits of such assays; conditions: source organism: Vaccinia virus WR
result_type: pIC50
Entry type: numeric. Quantity: pIC50, the -log10 of concentration in molar units.

Entry under review: `KHVGLITCK` . Reported pIC50? 4.33

* * *

molecular target: HLA-A*69:01; test: IEDB peptide-MHC binding, purified MHC/direct/fluorescence; filed as Kd, often an IC50 or EC50 that approximates it; bounds were set here for any values at or beyond the usual limits of such assays; conditions: source organism: Vibrio cholerae
result_type: Kd

Entry under review: `AENKKFKLH` . Reported Kd? ≥ 20 µM

* * *

target: HLA-B*40:01; experiment: IEDB peptide-MHC binding, purified MHC/direct/fluorescence; filed as Kd, often an IC50 or EC50 that approximates it; bounds were set here for any values at or beyond the usual limits of such assays; settings: source organism: Rickettsia conorii
result_type: Kd

Entry under review: `SSSGMDAYY` . Reported Kd? ≥ 20 µM

* * *

target: HLA-A*03:01; experiment: IEDB peptide-MHC binding, purified MHC/competitive/radioactivity; filed as Kd, often an IC50 or EC50 that approximates it; bounds were set here for any values at or beyond the usual limits of such assays; settings: source organism: Vaccinia virus WR
pKd: −log10 of the molar value.
Label rule met when pKd >= 6; otherwise rule not met.

Please indicate if the recorded pKd for `VFIHMVRCCK` meets or exceeds 6. rule not met

Please indicate if the recorded pKd for `SARNKLFKR` meets or exceeds 6. rule not met

Please indicate if the recorded pKd for `TIQRFSSLRR` meets or exceeds 6. rule met

Please indicate if the recorded pKd for `STELIRRVR` meets or exceeds 6. rule met

Please indicate if the recorded pKd for `MSSSVDVDIY` meets or exceeds 6. rule not met

Please indicate if the recorded pKd for `QAELTSNCTR` meets or exceeds 6. rule not met

Please indicate if the recorded pKd for `KAIITPVVFY` meets or exceeds 6. rule not met

Please indicate if the recorded pKd for `GVEDTESIER` meets or exceeds 6. rule not met

Please indicate if the recorded pKd for `LILNFLDWIK` meets or exceeds 6. rule met

Please indicate if the recorded pKd for `VLSAATETY` meets or exceeds 6. rule not met

Please indicate if the recorded pKd for `TSASEIKDR` meets or exceeds 6. rule not met

Please indicate if the recorded pKd for `LSKDKMDSFK` meets or exceeds 6. rule met

Please indicate if the recorded pKd for `AIEPSGNNY` meets or exceeds 6. rule not met

Please indicate if the recorded pKd for `SMTYLYNKY` meets or exceeds 6. rule not met

Please indicate if the recorded pKd for `NSNIIKNKK` meets or exceeds 6. rule not met

Please indicate if the recorded pKd for `FISDNKKEYK` meets or exceeds 6. rule not met

Please indicate if the recorded pKd for `ISLNSMYTR` meets or exceeds 6. rule not met

* * *

biological target: HLA-B*58:01; test: IEDB peptide-MHC binding, purified MHC/direct/fluorescence; filed as Kd, often an IC50 or EC50 that approximates it; bounds were set here for any values at or beyond the usual limits of such assays; details: source organism: Lassa virus Josiah
result_type: Kd

// map `NHYLCLNCL` to recorded Kd (system: HLA-B*58:01) ≥ 20 µM

* * *

target: HLA-B*40:01; test: IEDB peptide-MHC binding, purified MHC/competitive/radioactivity; filed as Kd, often an IC50 or EC50 that approximates it; bounds were set here for any values at or beyond the usual limits of such assays; conditions: source organism: Mammarenavirus machupoense
result_type: Kd (nM)
Could you give me the number in nM? Just the number is fine.

Entry under review: `SEILKTLGF` . Reported Kd? 1000

* * *

molecular target: HLA-A*24:03; experiment: IEDB peptide-MHC binding, purified MHC/direct/fluorescence; filed as Kd, often an IC50 or EC50 that approximates it; bounds were set here for any values at or beyond the usual limits of such assays; conditions: source organism: Yersinia enterocolitica subsp. enterocolitica 8081
result_type: Kd

Entry under review: `YIYDGKVNY` . Reported Kd? ≥ 20 µM

* * *

target: HLA-B*27:03; test: IEDB peptide-MHC binding, purified MHC/competitive/fluorescence; filed as Kd, often an IC50 or EC50 that approximates it; bounds were set here for any values at or beyond the usual limits of such assays; settings: source organism: Zaire ebolavirus
pKd: −log10 of the molar value.
result_type: pKd

// map `LSDAIFDDL` to recorded pKd (system: HLA-B*27:03) ≤ 4.70

// map `TTIGEWAFW` to recorded pKd (system: HLA-B*27:03) ≤ 4.70

// map `FLSFASLFL` to recorded pKd (system: HLA-B*27:03) ≤ 4.70

* * *

molecular target: HLA-A*24:02; assay: IEDB peptide-MHC binding, purified MHC/competitive/radioactivity; filed as Kd, often an IC50 or EC50 that approximates it; bounds were set here for any values at or beyond the usual limits of such assays; details: source organism: Dengue virus 3 Singapore/8120/1995
result_type: Kd (nM)
Could you give me the number in nM? Just the number is fine.

Entry under review: `KHMIAGVLF` . Reported Kd? 683

Entry under review: `SWKLEKASF` . Reported Kd? 153

* * *

biological target: HLA-B*27:05; assay: IEDB peptide-MHC binding, purified MHC/direct/fluorescence; filed as Kd, often an IC50 or EC50 that approximates it; bounds were set here for any values at or beyond the usual limits of such assays; settings: source organism: Histophilus somni
result_type: Kd

Entry under review: `QYPAFVLFI` . Reported Kd? ≥ 20 µM

* * *

target: HLA-A*31:01; test: IEDB peptide-MHC binding, purified MHC/competitive/radioactivity; filed as Kd, often an IC50 or EC50 that approximates it; bounds were set here for any values at or beyond the usual limits of such assays; conditions: source organism: Triticum aestivum
result_type: Kd
Include the unit right after the number.

// map `SSQVLQQSTY` to recorded Kd (system: HLA-A*31:01) 9 µM

* * *

molecular target: HLA-C*07:02; assay: IEDB peptide-MHC binding, purified MHC/direct/fluorescence; filed as Kd, often an IC50 or EC50 that approximates it; bounds were set here for any values at or beyond the usual limits of such assays; settings: source organism: human gammaherpesvirus 4
result_type: Kd (µM)
Could you give me the number in µM? Just the number is fine.

Entry under review: `MMAKSNSPF` . Reported Kd? 3.16

* * *

target: HLA-A*33:01; assay: IEDB peptide-MHC binding, purified MHC/competitive/radioactivity; filed as Kd, often an IC50 or EC50 that approximates it; bounds were set here for any values at or beyond the usual limits of such assays; conditions: source organism: Lassa virus GA391
result_type: Kd

// map `LMSIISTFH` to recorded Kd (system: HLA-A*33:01) ≥ 77.7 µM

* * *

biological target: HLA-A*69:01; test: IEDB peptide-MHC binding, purified MHC/competitive/fluorescence; filed as Kd, often an IC50 or EC50 that approximates it; bounds were set here for any values at or beyond the usual limits of such assays; details: source organism: Kurkino virus
pKd: −log10 of the molar value.
result_type: pKd

// map `WFLYVSQQI` to recorded pKd (system: HLA-A*69:01) ≤ 4.70

* * *

molecular target: HLA-A*31:01; test: IEDB peptide-MHC binding, purified MHC/competitive/radioactivity; filed as Kd, often an IC50 or EC50 that approximates it; bounds were set here for any values at or beyond the usual limits of such assays; conditions: source organism: Vaccinia virus Copenhagen
result_type: Kd (µM)
Could you give me the number in µM? Just the number is fine.

Entry under review: `SLAIKNYYRK` . Reported Kd? 0.297

Entry under review: `LILSCIFAFI` . Reported Kd? 0.254

* * *

molecular target: HLA-A*03:01; assay: IEDB peptide-MHC binding, purified MHC/competitive/radioactivity; filed as Kd, often an IC50 or EC50 that approximates it; bounds were set here for any values at or beyond the usual limits of such assays; conditions: source organism: Dengue virus 2 Peru/IQT2913/1996
result_type: pKd
Entry type: numeric. Quantity: pKd, the -log10 of concentration in molar units.

Entry under review: `LMSGRGIGK` . Reported pKd? 7.32
